Assay: clinical
Conditions: female, human, in vivo
propertyLabel: Cmax

Problem: For the compound shown here, C#C[C@]1(O)CC[C@H]2[C@@H]3CCC4=CC(=O)CC[C@@H]4[C@H]3CC[C@@]21CC , give the reported Cmax.
Result: > 2 ng/mL
